Assay: Toxicokinetics in dogs after intra-articular injection: synovial fluid concentrations
Assay type: in vivo, Beagle dogs
Details: Beagle, dog, synovial fluid; 150 mg/animal; Female; Study Day 1; read-out: Synovia Tmax

molecule | unit.of.measurement | Tmax
Cn1cc(-c2cccc(O)c2Oc2ccccc2)c2cc[nH]c2c1=O [BETi1] | h | 204

====

Test: Toxicokinetics in dogs after intra-articular injection: plasma concentrations
Type: in vivo, Beagle dogs
Conditions: Beagle, dog, plasma; 7.5 mg/animal; Male; Study Day 1; read-out: Plasma AUC0-672 h

chemical.string | AUC(0-t) [ng·h/mL]
Cn1cc(-c2cccc(O)c2Oc2ccccc2)c2cc[nH]c2c1=O | 390

====

System: anti collagen antibodies induced arthritis (ACAIA)
Test: Anti collagen antibodies induced arthritis (ACAIA) in mice, intra-articular treatment: paw thickness, arthritis clinical score, body weight
Conditions: Dexamethasone 1 mg/kg IP (Group 6); Av

compound | tested.system | unit.of.measurement | Weight per day, Day 3
C[C@@H]1C[C@H]2[C@@H]3CCC4=CC(=O)C=C[C@]4(C)[C@@]3(F)[C@@H](O)C[C@]2(C)[C@@]1(O)C(=O)CO [dexamethasone, Dexamethasone, reference compound] | anti collagen antibodies induced arthritis (ACAIA) | g | 19.6

====

System: anti collagen antibodies induced arthritis (ACAIA)
Test: Anti collagen antibodies induced arthritis (ACAIA) in mice, intra-articular treatment: paw thickness, arthritis clinical score, body weight
Conditions: Dexamethasone 1 mg/kg IP (Group 6); Av

molecule | Weight per day, Day 5, g
C[C@@H]1C[C@H]2[C@@H]3CCC4=CC(=O)C=C[C@]4(C)[C@@]3(F)[C@@H](O)C[C@]2(C)[C@@]1(O)C(=O)CO [dexamethasone, Dexamethasone, reference compound] | 18.1

====

Experiment: Solubility of BETi1 in water (HPLC) and in solvents (visual observation)
Type: physicochemical
Details: organic solvent or mixture, thermodynamic from solid; Ethyl acetate; 25° C.; visual observation; read-out: Approximate solubility

chemical.string | solubility
Cn1cc(-c2cccc(O)c2Oc2ccccc2)c2cc[nH]c2c1=O | < 5000 µg/mL

====

System: anti collagen antibodies induced arthritis (ACAIA)
Experiment: Anti collagen antibodies induced arthritis (ACAIA) in mice, intra-articular treatment: paw thickness, arthritis clinical score, body weight
Settings: BETi1 1 mg/kg IA (Group 3); Av
measure: Weight per day, Day 6 (g)

chemical.string | value.measured
Cn1cc(-c2cccc(O)c2Oc2ccccc2)c2cc[nH]c2c1=O | 18.5

====

Experiment: Toxicokinetics in dogs after intra-articular injection: plasma concentrations
Assay type: in vivo, Beagle dogs
Conditions: both sexes, Beagle, plasma; dog, intra-articular, calculated; read-out: Tmax, plasma (converted)

compound | Tmax
Cn1cc(-c2cccc(O)c2Oc2ccccc2)c2cc[nH]c2c1=O [BETi1] | ~120 h

====

Assay: Toxicokinetics in dogs after intra-articular injection: synovial fluid concentrations
Assay type: in vivo, Beagle dogs
Details: Beagle, dog, synovial fluid; 7.5 mg/animal; Male; Study Day 1; read-out: Synovia Cmax

molecule | Cmax / ng/mL
Cn1cc(-c2cccc(O)c2Oc2ccccc2)c2cc[nH]c2c1=O [BETi1] | 244

====

Test system: anti collagen antibodies induced arthritis (ACAIA)
Assay: Anti collagen antibodies induced arthritis (ACAIA) in mice, intra-articular treatment: paw thickness, arthritis clinical score, body weight
Conditions: BETi1 0.01 mg/kg IA (Group 5); Av

chemical.string | Weight per day, Day 10
Cn1cc(-c2cccc(O)c2Oc2ccccc2)c2cc[nH]c2c1=O | 18.4 g

====

Test system: anti collagen antibodies induced arthritis (ACAIA)
Assay: Anti collagen antibodies induced arthritis (ACAIA) in mice, intra-articular treatment: paw thickness, arthritis clinical score, body weight
Settings: Dexamethasone 1 mg/kg IA (Group 7); Av

compound | unit.of.measurement | Weight per day, Day 8
C[C@@H]1C[C@H]2[C@@H]3CCC4=CC(=O)C=C[C@]4(C)[C@@]3(F)[C@@H](O)C[C@]2(C)[C@@]1(O)C(=O)CO [dexamethasone, Dexamethasone, reference compound] | g | 17.7

====

Test system: anti collagen antibodies induced arthritis (ACAIA)
Assay: Anti collagen antibodies induced arthritis (ACAIA) in mice, intra-articular treatment: paw thickness, arthritis clinical score, body weight
Conditions: BETi1 0.01 mg/kg IA (Group 5); Av

chemical.string | tested.system | unit.of.measurement | Weight per day, Day 8
Cn1cc(-c2cccc(O)c2Oc2ccccc2)c2cc[nH]c2c1=O | anti collagen antibodies induced arthritis (ACAIA) | g | 18.5

====

System: anti collagen antibodies induced arthritis (ACAIA)
Assay: Anti collagen antibodies induced arthritis (ACAIA) in mice, intra-articular treatment: paw thickness, arthritis clinical score, body weight
Settings: BETi1 1 mg/kg IA (Group 3); Av

chemical.string | Weight per day, Day 3 [g]
Cn1cc(-c2cccc(O)c2Oc2ccccc2)c2cc[nH]c2c1=O | 20.7

====

Test system: anti collagen antibodies induced arthritis (ACAIA)
Test: Anti collagen antibodies induced arthritis (ACAIA) in mice, intra-articular treatment: paw thickness, arthritis clinical score, body weight
Details: BETi1 0.01 mg/kg IA (Group 5); Av

chemical.string | Weight per day, Day 5 (g)
Cn1cc(-c2cccc(O)c2Oc2ccccc2)c2cc[nH]c2c1=O | 18.5

====

Assay: Toxicokinetics in dogs after intra-articular injection: synovial fluid concentrations
Type: in vivo, Beagle dogs
Conditions: Beagle, dog, synovial fluid; 150 mg/animal; Female; Study Day 1; read-out: Synovia AUC0-672 h

chemical.string | AUC(0-t), µg·h/mL
Cn1cc(-c2cccc(O)c2Oc2ccccc2)c2cc[nH]c2c1=O | 11300

====

Assay: Toxicokinetics in dogs after intra-articular injection: plasma concentrations
Format: in vivo, Beagle dogs
Conditions: Beagle, dog, plasma; 7.5 mg/animal; Male; Study Day 1; read-out: Plasma Tmax

chemical.string | Tmax, h
Cn1cc(-c2cccc(O)c2Oc2ccccc2)c2cc[nH]c2c1=O | 4

====

Test: Toxicokinetics in dogs after intra-articular injection: synovial fluid concentrations
Format: in vivo, Beagle dogs
Details: Beagle, dog, synovial fluid; 75 mg/animal; Male; Study Day 1; read-out: Synovia AUC0-672 h
measure: AUC(0-t) (µg·h/mL)

chemical.string | value.measured
Cn1cc(-c2cccc(O)c2Oc2ccccc2)c2cc[nH]c2c1=O | 7890

====

System: anti collagen antibodies induced arthritis (ACAIA)
Experiment: Anti collagen antibodies induced arthritis (ACAIA) in mice, intra-articular treatment: paw thickness, arthritis clinical score, body weight
Settings: BETi1 10 mg/kg IA (Group 2); Av

chemical.string | tested.system | Weight per day, Day 4
Cn1cc(-c2cccc(O)c2Oc2ccccc2)c2cc[nH]c2c1=O | anti collagen antibodies induced arthritis (ACAIA) | 21.5 g

====

Test system: anti collagen antibodies induced arthritis (ACAIA)
Experiment: Anti collagen antibodies induced arthritis (ACAIA) in mice, intra-articular treatment: paw thickness, arthritis clinical score, body weight
Settings: BETi1 0.01 mg/kg IA (Group 5); Av
measure: Weight per day, Day 12 (g)

compound | unit.of.measurement | value.measured
Cn1cc(-c2cccc(O)c2Oc2ccccc2)c2cc[nH]c2c1=O [BETi1] | g | 19.1

====

Experiment: Toxicokinetics in dogs after intra-articular injection: plasma concentrations
Assay type: in vivo, Beagle dogs
Conditions: Beagle, dog, plasma; 150 mg/animal; Male; Study Day 1; read-out: Plasma Cmax

chemical.string | Cmax, ng/mL
Cn1cc(-c2cccc(O)c2Oc2ccccc2)c2cc[nH]c2c1=O | 48.8

====

Test: Toxicokinetics in dogs after intra-articular injection: plasma concentrations
Assay type: in vivo, Beagle dogs
Conditions: both sexes, Beagle, dog, plasma, other: intra-articular injection, 75 mg/animal; 75 mg intra-articular; 4 h; read-out: Plasma concentration of BETi1

chemical.string | concentration at 4 h / ng/mL
Cn1cc(-c2cccc(O)c2Oc2ccccc2)c2cc[nH]c2c1=O | 39.4

====

Assay: Solubility of BETi1 in water (HPLC) and in solvents (visual observation)
Format: physicochemical
Conditions: organic solvent or mixture, thermodynamic from solid; t-Butyl methyl ether; 25° C.; visual observation; read-out: Approximate solubility
measure: solubility

chemical.string | value.measured
Cn1cc(-c2cccc(O)c2Oc2ccccc2)c2cc[nH]c2c1=O | < 5000 µg/mL

====

Experiment: Toxicokinetics in dogs after intra-articular injection: plasma concentrations
Format: in vivo, Beagle dogs
Settings: Beagle, dog, plasma; 150 mg/animal; Female; Study Day 1; read-out: Plasma Cmax

compound | Cmax
Cn1cc(-c2cccc(O)c2Oc2ccccc2)c2cc[nH]c2c1=O [BETi1] | 52.9 ng/mL

====

Tested on: anti collagen antibodies induced arthritis (ACAIA)
Assay: Anti collagen antibodies induced arthritis (ACAIA) in mice, intra-articular treatment: paw thickness, arthritis clinical score, body weight;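 further: mouse arthritis induced by IV anti-collagen mAb on day 0 plus IP LPS on day 4, with body weight, caliper paw thickness and 0-4 paw score tracked against a day 0 baseline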
Conditions: BETi1 10 mg/kg IA (Group 2); Av
measure: Weight per day, Day 5 (g)

chemical.string | unit.of.measurement | value.measured
Cn1cc(-c2cccc(O)c2Oc2ccccc2)c2cc[nH]c2c1=O | g | 19.6

====

Test: Toxicokinetics in dogs after intra-articular injection: plasma concentrations
Assay type: in vivo, Beagle dogs
Details: Beagle, dog, plasma; 75 mg/animal; Male; Study Day 1; read-out: Plasma Cmax

chemical.string | Cmax (ng/mL)
Cn1cc(-c2cccc(O)c2Oc2ccccc2)c2cc[nH]c2c1=O | 50.2
